- target.entity: PRS (prolyl-tRNA synthetase) (Homo sapiens)
- Construct: the portion corresponding to PRS in cDNA of EPRS was subcloned; made in house
- Sequence (P07814 1007-1512 limits assumed): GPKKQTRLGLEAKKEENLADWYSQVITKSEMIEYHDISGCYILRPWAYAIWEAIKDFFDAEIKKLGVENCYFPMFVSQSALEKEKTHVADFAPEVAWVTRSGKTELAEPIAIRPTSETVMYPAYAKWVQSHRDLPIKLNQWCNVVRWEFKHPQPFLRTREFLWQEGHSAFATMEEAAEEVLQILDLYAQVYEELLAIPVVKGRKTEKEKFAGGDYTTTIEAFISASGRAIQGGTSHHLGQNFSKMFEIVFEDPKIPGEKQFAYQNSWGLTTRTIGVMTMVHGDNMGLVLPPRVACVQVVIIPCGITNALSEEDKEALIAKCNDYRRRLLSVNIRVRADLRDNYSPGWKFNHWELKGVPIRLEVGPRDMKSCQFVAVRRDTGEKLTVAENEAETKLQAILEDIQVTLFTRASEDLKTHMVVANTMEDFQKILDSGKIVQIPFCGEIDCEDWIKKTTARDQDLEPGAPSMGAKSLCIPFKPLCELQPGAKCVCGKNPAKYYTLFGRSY
- method.summary: In vitro PRS enzyme activity inhibition experiment ([3H]proline, liquid scintillation)
- Assay type: biochemical
- settings: purified PRS protein subcloned from EPRS cDNA; 37° C., 5 to 10 minutes; read-out: PRS IC50
pIC50: −log10 of the molar value.
recorded.endpoint: pIC50

Below, each entry is followed by its recorded pIC50 result.
[[record]]
compound = "Cc1c(Cl)cnc2c1ncn2CC(=O)C[C@H]1NCCC[C@@H]1O [Example 39]"
recorded_endpoint = "pIC50"
readout_value = "> 7.00"

[[record]]
compound = "O/N=C(/C[C@H]1NCCC[C@@H]1O)Cn1cnc2ncc(Br)cc21 [Example 66]"
recorded_endpoint = "pIC50"
readout_value = "< 6.30"

[[record]]
compound = "Cc1c(Br)cnc2c1ncn2CC(O)C[C@H]1NCCC[C@@H]1O (some centres unmarked) [Example 78]"
recorded_endpoint = "pIC50"
readout_value = "> 7.00"

[[record]]
compound = "O=C(C[C@H]1NCCC[C@@H]1O)Cn1cnc2ccc(Cl)cc21 [Example 3]"
recorded_endpoint = "pIC50"
readout_value = "> 7.00"


Noted for O=C(C[C@@H]1CCCN1)Cn1cnc2cc(Cl)c(Cl)cc21 [Example 90] : its pIC50 reads < 6.30
